The reported measurements were obtained from patent US20190275058A1.

assay: Phase I single- and multiple-rising dose study: plasma pharmacokinetics; design: species or system human; conditions: human, in vivo, human plasma; 270 mg Metyrapone/12 mg Oxazepam; Day 10; median, n 6; read-out: Tmax
Readout kind: Tmax (h)
Express the result in h but write the number alone.

Dear colleague, please send me the reported Tmax for O=C1Nc2ccc(Cl)cc2C(c2ccccc2)=NC1O (stereo not shown) when you can.
3

* * *

experiment: Phase I single- and multiple-rising dose study: plasma pharmacokinetics; set-up: species or system human; conditions: human, in vivo, human plasma; 720 mg Metyrapone/24 mg Oxazepam; Day 1; median, n 6; read-out: Tmax
Readout kind: Tmax (h)
Express the result in h but write the number alone.

Dear colleague, please send me the reported Tmax for O=C1Nc2ccc(Cl)cc2C(c2ccccc2)=NC1O (stereo not shown) when you can.
4

* * *

experiment: Phase I single- and multiple-rising dose study: plasma pharmacokinetics; set-up: species or system human; details: human, in vivo, human plasma; 540 mg Metyrapone/24 mg Oxazepam; Day 1; median, n 6; read-out: Tmax
Readout kind: Tmax (h)
Express the result in h but write the number alone.

Dear colleague, please send me the reported Tmax for O=C1Nc2ccc(Cl)cc2C(c2ccccc2)=NC1O (stereo not shown) when you can.
3

* * *

Assay: Phase I single- and multiple-rising dose study: plasma pharmacokinetics
Parameters: species or system human
Conditions: human, in vivo, human plasma; 720 mg Metyrapone/24 mg Oxazepam; Day 10; median, n 6; read-out: Tmax
Source text: Total daily doses were double these amounts on BID dosing days. Primary outcomes were safety and pharmacokinetics of MET, its active metabolite (metyrapol), and OX. Safety measures included vital signs, ECGs an standard safety labs. Cortisol and other HPA axis parameters were monitored closely throughout the study. They were not seeking to quit smoking. […] Primary outcomes were safety and pharmacokinetics.
Readout kind: Tmax (h)
Express the result in h but write the number alone.

Dear colleague, please send me the reported Tmax for O=C1Nc2ccc(Cl)cc2C(c2ccccc2)=NC1O (stereo not shown) when you can.
3
